# METHOD DESCRIPTION: plasma pharmacokinetics in healthy male subjects, multiple dose (loading plus daily maintenance dose, 8 days)
# Format: in vivo, human
# STATED CONDITIONS: male, human, plasma, oral; Regimen A and Regimen B, after 8 days of daily once dosing; read-out: mean elimination half-lives following the last dosing
EXPERIMENTAL READOUT: half-life

>>> endpoint_result("CC1(C)OC(c2ccc(S(N)(=O)=O)cc2)=C(c2cccc(F)c2)C1=O")
"4 to 5 days"
